Consider the following compounds; for each one, report its pIC50.
experimental system: rat maltase (partially purified alpha-glucosidase from intestinal rat powder)
protocol description: Intestinal alpha-glucosidase assay, maltose substrate (Glucose GO Kit)
The quantity pIC50 is defined as the negative base-10 logarithm of the molar concentration.

Please look up its pIC50: `Cc1cc(NCc2cccc(CN3C[C@H](O)[C@@H](O)[C@H](O)[C@H]3CO)n2)cc(-c2ccco2)c1`
6.65

Please answer likewise for `O=[N+]([O-])c1cc(CN2CCCO2)ccc1NCc1ccc(CN2C[C@H](O)[C@@H](O)[C@H](O)[C@H]2CO)cc1`
7.89

Repeat with `O=[N+]([O-])c1cc(-c2ncc[nH]2)ccc1NCCc1ccc(CCN2C[C@H](O)[C@@H](O)[C@H](O)[C@H]2CO)cc1`
7.55

The origin of these recorded values is patent US20250197372A1.
